Field: LC retention time. Provide a value for each of the compounds that follow.
# Test method notes: HILIC, HILICON iHILIC-(P) Classic, HILIC, PEEK, 100 × 2.1 mm, 5 µm, 40 °C, 0.2 mL/min, estimated dead time 1.1 min; A: water + 20 mM ammonium carbonate + 5 µM medronic acid; B: 10% water + 90% acetonitrile + 2 mM ammonium carbonate + 0.5 µM medronic acid; gradient (min/%B) 0/95 18/55 19/20 22/20 22.5/95 24/95 26/95
# Condition context: stereoisomer not certain
# number only, unit min dropped from output

IN: Give LC retention time for the following compound: Nc1ncnc2c1ncn2C1OC(COP(=O)(O)OP(=O)(O)O)C(O)C1O (stereo not drawn)
OUT: 11.9

IN: Given the compound NC(CCC(=O)NC(CS)C(=O)NCC(=O)O)C(=O)O (stereo not drawn) , write its reported LC retention time.
OUT: 10.2

IN: Using the record for `C=C(OP(=O)(O)O)C(=O)O` , state its measured LC retention time.
OUT: 14.6

IN: State, in one line, measured LC retention time of NC(=O)c1ccc[n+](C2OC(COP(=O)(O)OP(=O)(O)OCC3OC(n4cnc5c(N)ncnc54)C(O)C3O)C(O)C2O)c1 (stereo not drawn)
OUT: 11.1

IN: Look up LC retention time of NC(=O)c1ccc[n+](C2OC(COP(=O)(O)OP(=O)(O)OCC3OC(n4cnc5c(N)ncnc54)C(OP(=O)(O)O)C3O)C(O)C2O)c1 (stereo not drawn) and report it.
OUT: 14.4

IN: Check the records and state LC retention time for CC(C)(COP(=O)(O)OP(=O)(O)OCC1OC(n2cnc3c(N)ncnc32)C(O)C1OP(=O)(O)O)C(O)C(=O)NCCC(=O)NCCS (stereo not drawn)
OUT: 11.5

IN: Report LC retention time, nothing else, for this compound: Nc1ncnc2c1ncn2C1OC(CO)C(O)C1O (stereo not drawn)
OUT: 4.79

IN: In one line, give reported LC retention time of the entry NC(CCC(=O)O)C(=O)O (stereo not drawn) .
OUT: 9.7
